# target_system: Delta-type opioid receptor (Rattus norvegicus, UniProt P33533)
# Sequence (P33533 whole entry): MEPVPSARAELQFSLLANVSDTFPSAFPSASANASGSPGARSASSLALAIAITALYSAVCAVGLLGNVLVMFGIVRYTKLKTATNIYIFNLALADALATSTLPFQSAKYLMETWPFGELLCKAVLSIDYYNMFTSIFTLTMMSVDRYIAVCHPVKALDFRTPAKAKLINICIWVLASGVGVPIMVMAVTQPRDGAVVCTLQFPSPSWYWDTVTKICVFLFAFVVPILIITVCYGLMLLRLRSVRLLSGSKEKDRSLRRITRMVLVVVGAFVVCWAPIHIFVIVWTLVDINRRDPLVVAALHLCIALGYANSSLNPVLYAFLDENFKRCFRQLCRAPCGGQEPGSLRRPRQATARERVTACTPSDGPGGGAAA
# measurement_protocol: Inhibitory concentration was evaluated against delta opioid receptor by the displacement of tritiated DSLET from rat brain membranes
# Assay type: functional, cell membranes, Membrane
pIC50: −log10 of the molar value.
measure: pIC50

• Cc1cc(OCc2ccc(F)cc2)cc(C)c1CC(N)C(=O)N[C@H](C)C(=O)NCCCc1ccccc1 (stereo partly specified) = 6.43

* * *

Listed below: log10 IC50 values for each entry.
# target_system: Opioid receptor (Rattus norvegicus, UniProt P33533+P34975+P33535)
# measurement_protocol: Affinity for the opioid receptor by displacement of tritiated naloxone from rat brain membranes.
# Format: cell membranes, Membrane
measure: log10 IC50 (log10 of the value in nM)

* Cc1cc(OCc2ccc([N+](=O)[O-])cc2)cc(C)c1CC(N)C(=O)N[C@H](C)C(=O)NCCCc1ccccc1 (some centres not stated) | 0.46
* Cc1cc(OCc2ccccc2)cc(C)c1C[C@H](N)C(=O)N[C@H](C)C(=O)NCCCc1ccccc1 | 2.56
* Cc1cc(OCc2ccc(C#N)cc2)cc(C)c1CC(N)C(=O)N[C@H](C)C(=O)NCCCc1ccccc1 (some centres not stated) | 1.23
* COc1cc(C)c(C[C@H](N)C(=O)N[C@H](C)C(=O)NCCCc2ccccc2)c(C)c1 (stereo in doubt; 20c) | 2.62
* Cc1cc(OCc2ccc(C(=O)O)cc2)cc(C)c1C[C@H](N)C(=O)N[C@H](C)C(=O)NCCCc1ccccc1 | 1.92
* Cc1cc(O)cc(C)c1CC(C)(N)C(=O)N[C@H](C)C(=O)NCCCc1ccccc1 (some centres not stated) | 2.18
* CN[C@@H](Cc1c(C)cc(O)cc1C)C(=O)N[C@H](C)C(=O)NCCCc1ccccc1 | 2.15
* C=CCN(C(=O)C(N)Cc1c(C)cc(O)cc1C)[C@H](C)C(=O)NCCCc1ccccc1 (some centres not stated) | 0.11
* CN[C@H](Cc1c(C)cc(O)cc1C)C(=O)N[C@H](C)C(=O)NCCCc1ccccc1 | 3.26
* Cc1cc(O)cc(C)c1CC(N)C(=O)N[C@H](C)C(=O)N(C)CCCc1ccccc1 (some centres not stated) | 2.48
* C=CCN(C(=O)[C@@H](N)Cc1c(C)cc(O)cc1C)[C@H](C)C(=O)NCCCc1ccccc1 | 2.45
* CCOc1cc(C)c(CC(N)C(=O)N[C@H](C)C(=O)NCCCc2ccccc2)c(C)c1 (some centres not stated) | 2.11
